These data points were gathered from patent US10898481B2.

# assay_system: hA2b/CHO (Homo sapiens (Human))
# Sequence (P29275 whole entry): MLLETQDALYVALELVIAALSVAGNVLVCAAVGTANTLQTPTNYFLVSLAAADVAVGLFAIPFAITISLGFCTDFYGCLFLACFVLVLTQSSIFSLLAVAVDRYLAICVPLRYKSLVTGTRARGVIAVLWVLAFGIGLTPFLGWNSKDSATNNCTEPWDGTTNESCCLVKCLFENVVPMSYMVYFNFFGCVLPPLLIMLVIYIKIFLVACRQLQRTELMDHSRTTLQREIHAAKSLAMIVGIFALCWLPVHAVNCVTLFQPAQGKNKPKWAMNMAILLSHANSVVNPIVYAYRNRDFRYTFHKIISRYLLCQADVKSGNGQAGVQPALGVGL
# method_notes: cAMP inhibition assay in hA2b/CHO cells, 10 μM adenosine;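 also: cells exposed to compound 30 min at 37 °C, then stimulated with adenosine a further 30 min, cAMP read after 60 min at room temperature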
# Assay type: cell-based
# condition_set: read-out: cAMP & FLIPR IC50 (nM) hA2b
Each record gets a class by IC50: Low = under 200 nM, Medium = from 200 nM up to 800 nM, High = 800 nM and over

Problem: # bin label for Cc1cnc2ccc(-c3nc(C(=O)NCCS(C)(=O)=O)c(N)nc3-c3ccc(F)cc3)cn12 [Example 150]
Solution: Low

Problem: Hello team, could you let me know which band the following molecule falls into: Cc1cnc2ccc(-c3nc(C(=O)NC[C@H]4CCOC4)c(N)nc3-n3nccn3)cn12 [Example 242]
Solution: Medium

Problem: Which of the defined bands does the recorded IC50 of Cc1cnc2ccc(-c3nc(C(=O)NCCC#N)c(N)nc3-c3ncco3)cn12 [Example 142] sit within?
Solution: Medium

Problem: Pick a category. Item: CN(C)c1cccc(CNC(=O)c2nc(-c3ccc(=O)n(C)c3)c(-c3ncco3)nc2N)c1F [Example 33]
Solution: High

Problem: Lab note: which band did Cc1cc(-c2nc(C(=O)NCc3cccc(N(C)C)n3)c(N)nc2-c2ccc(F)cc2)cc(C)n1 [Example 9] land in?
Solution: High

Problem: Sort CCc1cnn2ccc(-c3nc(C(=O)NC[C@@H]4CCCN4C)c(N)nc3-c3ncco3)cc12 [Example 129] into one of the categories.
Solution: High
